Each record here notes measured pIC50.
- System: HT-1080
- measurementNotes: Antiproliferative activity against human HT1080 cells after 72 hrs by MTT assay
- Assay type: functional, cell-based
- statedConditions: HT-1080, 72 h
When answering, recall that pIC50 equals minus log10 of the concentration in mol/L, and write that number alone.

COc1cc(-c2n[nH]c3cc(-c4ccc(C)cc4)nn23)cc(OC)c1OC ... 4.29

q: Reported pIC50 for COc1cc(-c2n[nH]c3cc(-c4ccc(Cl)cc4)nn23)cc(OC)c1OC : what is it?
a: 5.17

q: // query pIC50 value for entry COc1cccc(-c2nnc3sc(-c4ccc(OC)c([N+](=O)[O-])c4)nn23)c1
a: 4.48
